- Test system: Staphylococcus aureus ATCC 6538P
value-type: MIC (µM)
Enter your answer as a number in µM; do not include the unit.

So what does the record say about MIC for CC(C)C[C@H](NC(=O)[C@H](CC(C)C)NC(=O)[C@H](CC(C)C)NC(=O)[C@H](CC(C)C)NC(=O)[C@H](CC(C)C)NC(=O)[C@H](CCCCN)NC(=O)[C@H](CC(C)C)NC(=O)[C@@H](N)CCCCN)C(N)=O ?
8.39

So what does the record say about MIC for CC[C@H](C)[C@H](NC(=O)[C@H](CCCCN)NC(=O)[C@H](CCCCN)NC(=O)[C@H](Cc1ccccc1)NC(=O)[C@H](CCCCN)NC(=O)[C@H](CCCCN)NC(=O)[C@H](Cc1c[nH]c2ccccc12)NC(=O)[C@@H](N)CCCCN)C(=O)NCC(=O)N[C@@H](CCCCN)C(=O)N[C@H](C(=O)N[C@@H](CC(C)C)C(=O)N[C@@H](CCCCN)C(=O)N[C@H](C(=O)N[C@@H](CC(C)C)C(=O)O)C(C)C)C(C)C ?
16

So what does the record say about MIC for CC[C@H](C)[C@H](NC(=O)[C@H](C)NC(=O)[C@H](CC(C)C)NC(=O)[C@H](CC(C)C)NC(=O)[C@H](CC(C)C)NC(=O)[C@H](C)N)C(=O)N[C@@H](CCCN=C(N)N)C(=O)N[C@@H](CCCN=C(N)N)C(=O)N[C@@H](CCCN=C(N)N)C(N)=O ?
1.85

So what does the record say about MIC for CC[C@H](C)[C@H](NC(=O)[C@H](CCCCN)NC(=O)[C@H](CCCCN)NC(=O)[C@H](Cc1ccccc1)NC(=O)[C@H](CCCCN)NC(=O)[C@H](CCCCN)NC(=O)[C@H](Cc1c[nH]c2ccccc12)NC(=O)[C@@H](N)CCCCN)C(=O)NCC(=O)N[C@@H](C)C(=O)N[C@H](C(=O)N[C@@H](CC(C)C)C(=O)N[C@@H](CCCCN)C(=O)N[C@H](C(=O)N[C@@H](CC(C)C)C(=O)O)C(C)C)C(C)C ?
16

So what does the record say about MIC for CC[C@H](C)[C@H](NC(=O)[C@H](C)NC(=O)[C@H](CC(C)C)NC(=O)[C@H](CC(C)C)NC(=O)[C@H](Cc1cnc[nH]1)NC(=O)[C@H](C)NC(=O)[C@H](C)NC(=O)[C@H](CC(C)C)NC(=O)[C@@H](N)CC(C)C)C(=O)NCC(=O)N[C@@H](CCCN=C(N)N)C(=O)N[C@@H](CCCN=C(N)N)C(N)=O ?
7.67

---

- System: Escherichia coli ATCC 25922
The label is Yes for MIC below 60 µM and No for MIC equal to or exceeding 60 µM.

Take the molecule CC[C@H](C)[C@H](NC(=O)[C@H](CCCN=C(N)N)NC(=O)[C@H](CCC(N)=O)NC(=O)[C@H](C)NC(=O)[C@H](C)NC(=O)[C@H](CCCN=C(N)N)NC(=O)[C@@H](N)CCCCN)C(=O)N[C@@H](CCCCN)C(=O)N[C@@H](C)C(=O)N[C@@H](Cc1ccccc1)C(=O)N[C@@H](CC(C)C)C(=O)N[C@@H](CCCN=C(N)N)C(=O)O and say whether its MIC is less than 60 µM.
Yes

Take the molecule CC(C)C[C@H](NC(=O)[C@H](Cc1c[nH]c2ccccc12)NC(=O)[C@@H](N)CCCCN)C(=O)N[C@@H](CCCN=C(N)N)C(=O)N[C@@H](CCCN=C(N)N)C(=O)N[C@H](C(=O)N[C@@H](Cc1c[nH]c2ccccc12)C(=O)N[C@@H](CCCN=C(N)N)C(=O)N[C@@H](Cc1c[nH]c2ccccc12)C(=O)N[C@@H](Cc1c[nH]c2ccccc12)C(=O)N[C@@H](CCCN=C(N)N)C(N)=O)C(C)C and say whether its MIC is less than 60 µM.
Yes

Take the molecule CC(C)[C@H](NC(=O)[C@H](Cc1ccc(O)cc1)NC(=O)[C@H](CO)NC(=O)[C@H](CCCCN)NC(=O)[C@@H](N)Cc1c[nH]c2ccccc12)C(=O)N[C@@H](CCCN=C(N)N)C(=O)N[C@@H](CCCN=C(N)N)C(=O)N[C@@H](Cc1c[nH]c2ccccc12)C(N)=O and say whether its MIC is less than 60 µM.
No

Take the molecule CC[C@H](C)[C@H](NC(=O)[C@H](CCCN=C(N)N)NC(=O)[C@H](Cc1c[nH]c2ccccc12)NC(=O)[C@H](CCCN=C(N)N)NC(=O)[C@@H](NC(=O)[C@H](CCCCN)NC(=O)[C@H](Cc1c[nH]c2ccccc12)NC(=O)[C@H](CCCN=C(N)N)NC(=O)[C@@H](NC(=O)[C@H](CCCN=C(N)N)NC(=O)[C@@H](N)Cc1c[nH]c2ccccc12)[C@@H](C)CC)[C@@H](C)O)C(=O)N[C@@H](CCCCN)C(N)=O and say whether its MIC is less than 60 µM.
Yes

Take the molecule CC(C)C[C@H](NC(=O)[C@H](Cc1cnc[nH]1)NC(=O)[C@H](Cc1ccc(O)cc1)NC(=O)[C@H](CCCN=C(N)N)NC(=O)[C@H](Cc1ccc(O)cc1)NC(=O)[C@H](CCCCN)NC(=O)[C@@H](N)CCCCN)C(=O)N[C@@H](CCCCN)C(=O)N1CCC[C@H]1C(=O)N[C@@H](Cc1ccccc1)C(=O)N[C@@H](CS)C(=O)N[C@@H](CCCCN)C(=O)N[C@@H](CCCCN)C(=O)O and say whether its MIC is less than 60 µM.
No

Take the molecule CC[C@H](C)[C@H](NC(=O)[C@H](CCCCN)NC(=O)[C@H](CCCCN)NC(=O)[C@@H](NC(=O)[C@@H](NC(=O)[C@H](CC(=O)O)NC(=O)[C@H](C)NC(=O)[C@H](CC(C)C)NC(=O)CN)[C@@H](C)CC)[C@@H](C)CC)C(=O)N[C@@H](C)C(=O)N[C@@H](CCC(=O)O)C(=O)N[C@@H](CO)C(=O)N[C@@H](Cc1ccccc1)C(N)=O and say whether its MIC is less than 60 µM.
No
